- System: SNB-78 CNS
- assay.explanation: NCI tumour cell line growth inhibition, 48 h
readout.label: TGI

CCN(CC)c1ccc(N=C2C=CC(=C(C#N)C#N)c3ccccc32)c(C)c1    6.42 µM
CC1CCC2[C@@H](C)COC3O[C@]4(C)CCC1C32OO4 (some centres not stated)    > 100 µM
O=C1NC(=O)C2(CCc3ccc(N(CCCl)CCCl)cc32)N1 (configuration not stated)    > 100 µM
O=C1OC(=O)C2C1C1C(c3ccccc3)=C(c3ccccc3)C2(O)C2C(=O)OC(=O)C12 (configuration not stated)    > 100 µM
N#CC1([N+](=O)[O-])C=C1c1ccccc1 (configuration not stated)    > 100 µM

Form: compound = CC(=O)CC(=O)ON(C)C(=O)Cc1ccccc1 ; TGI = > 100 µM

Form: compound = CC1=C(C(=O)NCc2ccccc2)C(c2ccccc2O)C(C(=O)NCc2ccccc2)=C(C)N1 ; TGI = 95.2 µM

###

For MDA-MB-435, measured GI50 is reported for the entries below.

Please review the entries below; each comes with its answer.
O=C(CN1CCN(c2ccccn2)CC1)Nc1ccc(Cl)cc1C(=O)c1ccccc1Cl    28.4 µM
CC1SC(c2cccc(Cl)c2)N(NC(=O)C(O)c2ccccc2)C1=O (stereo not drawn)    > 100 µM
CCC(=O)OCN1C(=O)C=CC1=O    17.4 µM
CC1CC2(C)CC(=O)C1C1C(=O)N(CCN3CCOCC3)C(=O)C12 (stereo not drawn)    > 100 µM
COc1ccc(-c2c(C#N)cnc(N)c2-c2nc3cc(C)c(C)cc3[nH]2)cc1    1.95 µM
COc1ccc2c(c1)O/C(=C\c1ccc([N+](=O)[O-])s1)C2=O    > 100 µM
CCN1C(=O)N(CC)C2C1NN=c1s/c(=C\c3cnc(C)n3C)c(=O)n12 (stereo not drawn)    0.321 µM

Consider the record given below.
Short answer on MDA-MB-435 for O=C1C=C(OCC=C(Cl)Cl)C(=O)c2ccccc21 , GI50: 1.65 µM

###

- Tested on: SF-295 CNS
- assay.explanation: NCI tumour cell line growth inhibition, 48 h; in the data active = GI50 below about 0.43 µM; inactive = the rest
Use one of these outcomes when replying: active, inactive

C[C@H](c1ccc(Cl)cc1[N+](=O)[O-])N1C(=O)c2cc(I)ccc2NC(=O)[C@H]1c1ccc(Cl)cc1    inactive
CC1CC2(C)CC(=O)C1C1C(=O)N(CCN3CCOCC3)C(=O)C12 (configuration not stated)    inactive
COC(=O)[C@]1(C)CC[C@]2(C)CC[C@]3(C)C(=CC(=O)[C@@H]4[C@@]5(C)CCC(=O)NC(C)(C)[C@@H]5CC[C@]43C)[C@@H]2C1    inactive
CC(=O)Nc1nc(C)c(-c2cc3c(c(S(C)(=O)=O)c2)C(=O)N([C@@H](C)C2CC2)C3)s1    inactive
Nc1nc(N)c(-c2ccc(Cl)cc2)c(/C=C/c2ccc([N+](=O)[O-])cc2)n1    inactive
CCC(=O)OCN1C(=O)C=CC1=O    inactive
COc1ccc(-c2cc(=O)c3cccnc3[nH]2)cc1    inactive
COc1ccc2c(c1)C(=O)c1c-2n(CCCNCCO)c(=O)c2cc([N+](=O)[O-])ccc12    active

Prompt line: Please indicate how the test categorized COC(=O)CCc1c(/C=C2\N=C(c3ccc[nH]3)C=C2OC)[nH]c(C)c1C(=O)OCc1ccccc1 .
Response line: active

Prompt line: Please indicate how the test categorized CC1(C)N=C(N)N=C(N)N1c1ccc(CCC(=O)Nc2cccc(S(=O)(=O)F)c2)cc1 .
Response line: inactive

Prompt line: Please indicate how the test categorized NC(N)=NC(N)=NCc1ccco1 .
Response line: inactive

Prompt line: Please indicate how the test categorized O=C1C=C(OCC=C(Cl)Cl)C(=O)c2ccccc21 .
Response line: inactive
